testedTarget: ERBB2 (R896C) (Homo sapiens, UniProt P04626, R896C)
Sequence (P04626 23-1255 R896C): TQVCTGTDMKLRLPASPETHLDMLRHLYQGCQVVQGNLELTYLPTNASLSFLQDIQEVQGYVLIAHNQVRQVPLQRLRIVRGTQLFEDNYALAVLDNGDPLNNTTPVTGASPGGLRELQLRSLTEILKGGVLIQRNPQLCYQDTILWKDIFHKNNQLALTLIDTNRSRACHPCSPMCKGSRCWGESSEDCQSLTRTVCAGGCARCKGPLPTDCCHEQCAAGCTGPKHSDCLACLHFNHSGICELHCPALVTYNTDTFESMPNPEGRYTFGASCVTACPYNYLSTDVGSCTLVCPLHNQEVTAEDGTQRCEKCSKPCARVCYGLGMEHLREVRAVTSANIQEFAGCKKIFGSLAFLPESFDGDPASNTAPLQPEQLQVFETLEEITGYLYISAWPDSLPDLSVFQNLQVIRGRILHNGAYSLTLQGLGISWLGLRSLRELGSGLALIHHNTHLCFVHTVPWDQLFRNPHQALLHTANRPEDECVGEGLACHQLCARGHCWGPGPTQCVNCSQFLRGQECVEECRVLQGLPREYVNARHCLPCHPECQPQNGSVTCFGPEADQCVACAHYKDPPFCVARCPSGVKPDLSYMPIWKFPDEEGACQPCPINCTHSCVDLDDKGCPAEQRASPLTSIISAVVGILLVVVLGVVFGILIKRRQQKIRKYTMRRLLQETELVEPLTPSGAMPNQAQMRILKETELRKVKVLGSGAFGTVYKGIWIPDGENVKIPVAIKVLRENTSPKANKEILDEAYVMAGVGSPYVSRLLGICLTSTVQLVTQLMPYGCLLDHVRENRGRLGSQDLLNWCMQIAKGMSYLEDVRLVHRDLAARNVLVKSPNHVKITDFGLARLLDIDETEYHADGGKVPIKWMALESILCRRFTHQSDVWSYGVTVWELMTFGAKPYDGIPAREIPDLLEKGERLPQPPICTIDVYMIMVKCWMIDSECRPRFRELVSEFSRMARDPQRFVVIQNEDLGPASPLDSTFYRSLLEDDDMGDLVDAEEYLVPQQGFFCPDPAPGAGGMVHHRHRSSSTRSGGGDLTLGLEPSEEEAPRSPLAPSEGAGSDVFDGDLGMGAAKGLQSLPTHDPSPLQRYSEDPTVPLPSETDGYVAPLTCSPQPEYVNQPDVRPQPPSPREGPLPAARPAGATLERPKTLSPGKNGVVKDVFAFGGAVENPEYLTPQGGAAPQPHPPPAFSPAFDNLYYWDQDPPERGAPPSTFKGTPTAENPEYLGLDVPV
testDescription: Reaction Biology kinase activity assay (33P-ATP, HotSpot)
Assay type: biochemical
conditionsUsed: final enzyme concentration 200 nM; 100 μM 33P-ATP; 20 min preincubation, 2 hours at 25° C.
Item-by-item account of IC50
Number only, in nM; omit the unit.

So, CC#CC(=O)Nc1ccc2ncnc(Nc3ccc(Oc4ccn5ncnc5c4)c(C)c3)c2c1 ? Its IC50 was 2.29

Further cases:
Lab note: measured IC50 of Cc1cc(Nc2ncnc3ccc(NC4=NC(C)(C)CO4)cc23)ccc1Oc1ccn2ncnc2c1 [Tucatinib, tucatinib, reference compound] was 2.95
